B1: MNAT1 (parent)
chain: LAPIHKLEEALYEYQPLQIETYGP

variants of: B1; experiment: protein stability index of a GFP-peptide fusion (GPS, HEK-293T) (PSI 1-6); higher = more stable; conditions: c terminus: a fixed tail appended;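 note: lentivirally expressed fusions sorted by FACS into six bins by GFP to DsRed ratio, PSI derived from sequencing read proportions per bin multiplied by bin number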
Listing: protein stability index of selected variants
METRIC_NAME: protein stability index

{"MUTATIONS": "G23N", "METRIC_NAME": "protein stability index", "QUANTITATIVE_READOUT": 1.85}
{"MUTATIONS": "G23C", "METRIC_NAME": "protein stability index", "QUANTITATIVE_READOUT": 1.44}
{"MUTATIONS": "Y12R", "METRIC_NAME": "protein stability index", "QUANTITATIVE_READOUT": 2.19}
{"MUTATIONS": "K6F", "METRIC_NAME": "protein stability index", "QUANTITATIVE_READOUT": 2.75}
{"MUTATIONS": "I4D", "METRIC_NAME": "protein stability index", "QUANTITATIVE_READOUT": 2.78}
{"MUTATIONS": "L1C", "METRIC_NAME": "protein stability index", "QUANTITATIVE_READOUT": 1.25}
{"MUTATIONS": "Q15F", "METRIC_NAME": "protein stability index", "QUANTITATIVE_READOUT": 1.17}
{"MUTATIONS": "T21Y", "METRIC_NAME": "protein stability index", "QUANTITATIVE_READOUT": 2.38}
{"MUTATIONS": "I19E", "METRIC_NAME": "protein stability index", "QUANTITATIVE_READOUT": 3.3}
{"MUTATIONS": "L17A", "METRIC_NAME": "protein stability index", "QUANTITATIVE_READOUT": 2.5}
{"MUTATIONS": "L1V", "METRIC_NAME": "protein stability index", "QUANTITATIVE_READOUT": 2.31}
{"MUTATIONS": "E9K", "METRIC_NAME": "protein stability index", "QUANTITATIVE_READOUT": 2.26}
{"MUTATIONS": "Y12M", "METRIC_NAME": "protein stability index", "QUANTITATIVE_READOUT": 2.25}
{"MUTATIONS": "E13C", "METRIC_NAME": "protein stability index", "QUANTITATIVE_READOUT": 1.64}
{"MUTATIONS": "L7R", "METRIC_NAME": "protein stability index", "QUANTITATIVE_READOUT": 3.06}
{"MUTATIONS": "I19Q", "METRIC_NAME": "protein stability index", "QUANTITATIVE_READOUT": 3.62}
{"MUTATIONS": "T21F", "METRIC_NAME": "protein stability index", "QUANTITATIVE_READOUT": 5.16}
